Cited source for all entries: ChEMBL document CHEMBL4190362

METHOD: Selectivity index, ratio of CC50 for human Hep2 cells to MIC for Candida albicans clinical isolates
Format: toxicity
COND: HEp-2 cells, read-out: Selectivity Index
Using selectivity ratio as the sorting value, the categories are class 1: < 20; class 2: ≥ 20 and < 30; class 3: ≥ 30

Examples from the recorded data:
COMPOUND | CATEGORY_LABEL
CC(C)=N/N=C1\NC(=O)CS1 | class 3
CC1CCC/C1=N/N=C1\NC(=O)CS1 (centres undefined) | class 2

Ask: Hi there! Could you help me figure out the category for CC1CC/C(=N/N=C2\NC(=O)CS2)C1 (centres undefined) please?
Reply: class 2

Ask: Hi there! Could you help me figure out the category for CCCC/C(CC)=N\N=C1/NC(=O)CS1 please?
Reply: class 1

Ask: Hi there! Could you help me figure out the category for C/C(=N/N=C1\NC(=O)CS1)c1cccs1 please?
Reply: class 3
